Cathepsin S (Homo sapiens) Ki, compiled from various sources.
Sequence (P25774 whole entry): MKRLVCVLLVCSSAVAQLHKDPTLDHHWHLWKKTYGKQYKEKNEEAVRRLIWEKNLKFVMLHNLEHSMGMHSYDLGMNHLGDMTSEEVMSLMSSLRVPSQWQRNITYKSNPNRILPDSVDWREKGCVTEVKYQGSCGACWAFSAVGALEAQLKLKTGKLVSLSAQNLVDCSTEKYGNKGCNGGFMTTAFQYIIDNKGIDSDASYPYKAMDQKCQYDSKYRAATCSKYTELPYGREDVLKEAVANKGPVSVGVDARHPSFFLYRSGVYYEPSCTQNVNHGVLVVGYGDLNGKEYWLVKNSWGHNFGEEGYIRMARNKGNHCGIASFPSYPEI
Hi! Just check whether Ki is below 0.4 µM. Below gives criterion met, equal or above gives criterion not met.

Reference set (6 entries):
>>> df
                                   molecule                  testtarget      discretelabel
0        CC[C@H](NC(=O)OC(C)(C)C)C(=O)NCC#N  Cathepsin S (Homo sapiens)  criterion not met
1  CC(C)C[C@H](NC(=O)c1ccc2ccccc2n1)C(=O)N[C@H]1CCCN(S(=O)(=O)c2ccccn2)CC1=O  Cathepsin S (Homo sapiens)      criterion met
2  CC(C)(C)OC(=O)N[C@@H](Cc1ccsc1)C(=O)NCC#N  Cathepsin S (Homo sapiens)  criterion not met
3  CC(C)(C)OC(=O)N[C@@H](Cc1ccco1)C(=O)NCC#N  Cathepsin S (Homo sapiens)  criterion not met
4               N#CCNC(=O)CNC(=O)OCc1ccccc1  Cathepsin S (Homo sapiens)  criterion not met
5  O=C(N[C@@H](Cc1ccc2ccccc2c1)C(=O)N[C@H]1CCCN(S(=O)(=O)c2ccccn2)CC1=O)c1cc2ccccc2o1  Cathepsin S (Homo sapiens)      criterion met

INPUT: Does CC(C)C[C@H](NC(=O)OCc1ccccc1)C(=O)NC1CCOCC1=O (stereo partly drawn) have Ki strictly under 0.4 µM?
OUTPUT: criterion not met

###

pKi: −log10 of the molar value.
For reference, the following pKi results for UniProtKB P25774 were taken from various sources.
Quick rule: pKi of at least 6 means yes, below that means no.

Reference set (3 entries):
In [3]: df
Out[3]:
                                   compound  discretelabel
0  CS(=O)(=O)CC[C@H](CNc1ccc(OC(F)(F)F)cc1)NC(=O)[C@@H](CC(=O)N1CCOCC1)CC1CCCCC1            yes
1  NC(=O)C(=O)C(Cc1ccccc1)NC(=O)c1cccnc1N1CCC(c2ccccc2)C1 (centres undefined)             no
2  CCN(CC)c1ccc(/C=C/c2ccccc2C(=O)NC(Cc2ccccc2)C(=O)C(N)=O)cc1 (centres undefined)             no

INPUT: State whether the measured pKi reaches 6, counting equality as reaching it, for "C#C[C@@H]1CN(C(=O)[C@@H](NC(=O)c2ccc(-c3nc(N4CCN(C)CC4)sc3F)cc2)C2CCCC2)[C@@H]2C(=O)CO[C@H]12"
OUTPUT: no

INPUT: Is pKi for "N#CCNC(=O)CNS(=O)(=O)c1ccc2ccccc2c1" at or above 6?
OUTPUT: no

INPUT: I'd appreciate it if you could say whether "CC(C)(C)OC(=O)N[C@@H](Cc1ccccc1)C(=O)NCC#N" has pKi at least equal to 6.
OUTPUT: yes

INPUT: Say whether "C[C@@H](CNc1ccc(OC(F)(F)F)cc1)NC(=O)[C@H](CC1CCCCC1)NC(=O)OC1CCOCC1" shows pKi of 6 or more.
OUTPUT: yes

INPUT: Does pKi meet or surpass 6 for "O=C(C[C@@H](CC1CCCCC1)C(=O)N1CCOCC1)NCCNc1ccc(F)cc1" ?
OUTPUT: no

INPUT: In plain terms: is recorded pKi at least 6 for "CCC[C@H](NC(=O)OC(C)(C)C)C(=O)c1nnc(-c2ccccc2OC)o1" ?
OUTPUT: no
